Tested on: surinam grass
Test: Test B pre/postemergence surinam grass
Assay type: in vivo, Brachiaria decumbens
Details: Preemergence, Rate 250 g/ha; scale 0 to 10, 0 is no effect, 10 is complete control
MEASUREMENT NAME: B. signalgrass plant response rating
Numbers only.

MOLECULE: CC(C)N(C(=O)n1oc(=O)n(C(C)c2ccccc2)c1=O)c1ccc(Cl)cc1 (stereo not shown)
EXPERIMENTAL VALUE: 5
//
MOLECULE: CCC=CCn1c(=O)on(C(=O)N(c2ccccc2)C(C)C)c1=O
EXPERIMENTAL VALUE: 4
//
MOLECULE: CCN(C(=O)n1oc(=O)n(C2CCCCCC2)c1=O)C1CCCCC1
EXPERIMENTAL VALUE: 0

Switching to the query record.
Please fill in: B. signalgrass plant response rating reported for CC(C)N(C(=O)n1oc(=O)n(CC2=CCCCC2)c1=O)c1ccccc1 = 1
